B1: HDV Ribozyme (parent)
chain: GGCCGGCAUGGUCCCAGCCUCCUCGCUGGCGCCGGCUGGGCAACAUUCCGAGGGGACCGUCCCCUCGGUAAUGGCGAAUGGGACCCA

- Variants of: B1
- EXPERIMENT_DESCRIPTION: self-cleavage, relative activity (ratio to wild type); higher = more cleavage; co-transcriptional
Could you label it 1 if measured self-cleavage is 0.7 or higher, and 0 otherwise?

Exam item: decide whether the reported self-cleavage for G54C U69A is at least 0.7.
1

Exam item: decide whether the reported self-cleavage for C22G U47A is at least 0.7.
0

Exam item: decide whether the reported self-cleavage for G34A G39A is at least 0.7.
0

Exam item: decide whether the reported self-cleavage for U46A G74C is at least 0.7.
0

Exam item: decide whether the reported self-cleavage for U20G A45U is at least 0.7.
0

Exam item: decide whether the reported self-cleavage for C22A U79A is at least 0.7.
0

Exam item: decide whether the reported self-cleavage for C15A C22A is at least 0.7.
0

Exam item: decide whether the reported self-cleavage for A51G G67C is at least 0.7.
1

Exam item: decide whether the reported self-cleavage for G34A A70C is at least 0.7.
0

Exam item: decide whether the reported self-cleavage for C15G G53C is at least 0.7.
0

Exam item: decide whether the reported self-cleavage for U72G C84A is at least 0.7.
0

Exam item: decide whether the reported self-cleavage for C3A C30A is at least 0.7.
0

Exam item: decide whether the reported self-cleavage for G38C G50C is at least 0.7.
0

Exam item: decide whether the reported self-cleavage for C33U C48G is at least 0.7.
1

Exam item: decide whether the reported self-cleavage for U12G C15U is at least 0.7.
0

Exam item: decide whether the reported self-cleavage for G2U C18G is at least 0.7.
0

Exam item: decide whether the reported self-cleavage for G2U G76U is at least 0.7.
0

Exam item: decide whether the reported self-cleavage for C22A A77C is at least 0.7.
0

Exam item: decide whether the reported self-cleavage for U27C C84U is at least 0.7.
0

Exam item: decide whether the reported self-cleavage for G25A U72G is at least 0.7.
0

Exam item: decide whether the reported self-cleavage for A42U C58A is at least 0.7.
0

Exam item: decide whether the reported self-cleavage for G28A A42G is at least 0.7.
0

Exam item: decide whether the reported self-cleavage for U9G G35A is at least 0.7.
1

Exam item: decide whether the reported self-cleavage for C49U C63U is at least 0.7.
1

Exam item: decide whether the reported self-cleavage for C14U G53C is at least 0.7.
1

Exam item: decide whether the reported self-cleavage for C21A G34A is at least 0.7.
0

Exam item: decide whether the reported self-cleavage for U27G G40A is at least 0.7.
1

Exam item: decide whether the reported self-cleavage for G59A A87G is at least 0.7.
1

Exam item: decide whether the reported self-cleavage for C4G C21U is at least 0.7.
0

Exam item: decide whether the reported self-cleavage for C48G A83G is at least 0.7.
1

Exam item: decide whether the reported self-cleavage for U69A U72G is at least 0.7.
1

Exam item: decide whether the reported self-cleavage for G28C C49U is at least 0.7.
0

Exam item: decide whether the reported self-cleavage for C26G G38U is at least 0.7.
0

Exam item: decide whether the reported self-cleavage for C13U U27G is at least 0.7.
1

Exam item: decide whether the reported self-cleavage for C48G G76C is at least 0.7.
1

Exam item: decide whether the reported self-cleavage for A43C C63G is at least 0.7.
0

Exam item: decide whether the reported self-cleavage for A16U A56C is at least 0.7.
1

Exam item: decide whether the reported self-cleavage for C48A G82A is at least 0.7.
0

Exam item: decide whether the reported self-cleavage for U12A G53C is at least 0.7.
0

Exam item: decide whether the reported self-cleavage for C15G C64G is at least 0.7.
0

Exam item: decide whether the reported self-cleavage for C3A G35A is at least 0.7.
1

Exam item: decide whether the reported self-cleavage for C48G A51C is at least 0.7.
1

Exam item: decide whether the reported self-cleavage for G35A G38U is at least 0.7.
0
